test_system: UniProtKB P07374
assay_explanation: In vitro urease inhibitory activity
measure_name: IC50 (nM)

Solved cases (3 shown):
compound_smiles=COc1cc(-c2nc3cc(C(=O)N4CCN(c5ccccc5)CC4)ccc3[nH]2)ccc1OCC(=O)Nc1ccccc1C measure_name=IC50 reported_measurement=820
compound_smiles=COc1cc(-c2nc3cc(C(=O)N4CCN(c5ccccc5)CC4)ccc3[nH]2)ccc1OCC(=O)Nc1ccc(Cl)cc1 measure_name=IC50 reported_measurement=1780
compound_smiles=COc1cc(-c2nc3cc(C(=O)N4CCN(c5ccccc5)CC4)ccc3[nH]2)ccc1OCC(=O)Nc1cccc(Cl)c1 measure_name=IC50 reported_measurement=2720

I: CCc1ccc(NC(=O)COc2ccc(-c3nc4cc(C(=O)N5CCN(c6ccccc6)CC5)ccc4[nH]3)cc2OC)cc1
II: COc1cc(-c2nc3cc(C(=O)N4CCN(c5ccccc5)CC4)ccc3[nH]2)ccc1OCC(=O)Nc1cccc([N+](=O)[O-])c1
III: COc1cc(-c2nc3cc(C(=O)N4CCN(c5ccccc5)CC4)ccc3[nH]2)ccc1OCC(=O)Nc1ccc(C)cc1
IV: COc1cc(-c2nc3cc(C(=O)N4CCN(c5ccccc5)CC4)ccc3[nH]2)ccc1OCC(=O)Nc1ccc([N+](=O)[O-])cc1
V: COc1cc(-c2nc3cc(C(=O)N4CCN(c5ccccc5)CC4)ccc3[nH]2)ccc1OCC(=O)Nc1ccccc1F
Rank order required: IC50, descending. Form entry: labels listed in requested order.
III, V, I, IV, II
(III: 12200 nM, V: 2400 nM, I: 510 nM, IV: 350 nM, II: 150 nM)

----------
test_system: urease (JBU; EC 3.5.1.5) (Canavalia ensiformis, UniProt P07374)
Sequence (P07374 whole entry, looked up): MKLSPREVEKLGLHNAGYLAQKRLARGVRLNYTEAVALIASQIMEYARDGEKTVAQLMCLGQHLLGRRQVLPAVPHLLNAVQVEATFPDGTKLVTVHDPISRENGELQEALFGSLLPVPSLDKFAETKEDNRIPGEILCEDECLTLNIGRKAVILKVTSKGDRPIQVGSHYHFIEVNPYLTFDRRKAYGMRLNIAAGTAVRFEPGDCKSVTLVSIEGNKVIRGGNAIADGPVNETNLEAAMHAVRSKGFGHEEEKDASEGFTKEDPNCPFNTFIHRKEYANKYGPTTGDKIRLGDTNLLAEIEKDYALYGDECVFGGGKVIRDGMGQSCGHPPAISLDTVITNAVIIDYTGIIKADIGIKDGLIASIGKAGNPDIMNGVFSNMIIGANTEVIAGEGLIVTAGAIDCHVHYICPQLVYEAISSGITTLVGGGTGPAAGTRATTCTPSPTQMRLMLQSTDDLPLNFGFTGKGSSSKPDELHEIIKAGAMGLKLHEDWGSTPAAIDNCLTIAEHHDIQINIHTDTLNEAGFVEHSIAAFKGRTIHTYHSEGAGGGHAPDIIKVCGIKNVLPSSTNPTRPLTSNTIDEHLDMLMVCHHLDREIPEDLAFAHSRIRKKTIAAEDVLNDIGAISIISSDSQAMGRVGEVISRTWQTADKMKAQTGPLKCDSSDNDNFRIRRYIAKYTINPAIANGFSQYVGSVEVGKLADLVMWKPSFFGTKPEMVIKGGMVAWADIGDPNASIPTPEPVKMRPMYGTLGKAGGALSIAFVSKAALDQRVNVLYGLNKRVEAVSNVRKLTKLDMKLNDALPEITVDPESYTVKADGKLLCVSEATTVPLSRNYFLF
assay_explanation: In vitro urease inhibitory activity
measure_name: IC50 (µM)

molecule="COc1cc(-c2nc3cc(C(=O)N4CCN(c5ccccc5)CC4)ccc3[nH]2)ccc1OCC(=O)Nc1ccccc1 [Compound 9a]" reported_measurement=11.1

a: COc1cc(-c2nc3cc(C(=O)N4CCN(c5ccccc5)CC4)ccc3[nH]2)ccc1OCC(=O)Nc1ccccc1Cl [Compound 9i]
b: COc1cc(-c2nc3cc(C(=O)N4CCN(c5ccccc5)CC4)ccc3[nH]2)ccc1OCC(=O)Nc1c(C)cccc1C [Compound 9e]
Select the item with the higher value of IC50 from the options a and b listed. Kindly give the label for the entry you pick.
a
(a: 9.24 µM, b: 1.26 µM)
